# System: Salmonella typhimurium
# METHOD_NOTES: Mutagenicity in Salmonella typhimurium TA98 at 0.3 to 25 ug/plate after 1 hr by Ames test in presence of S9 fraction
# Type: toxicity, organism-based
# MEASUREMENT_PARAMETERS: salmonella enterica subsp. enterica serovar typhimurium, s9, 1 h
EXPERIMENTAL_ENDPOINT: Activity

1. COC(=O)c1c(C(F)(F)F)[n+]([O-])c2ccc(OC)cc2[n+]1[O-]	Toxic
2. CCOC(=O)c1c(C(F)(F)F)[n+]([O-])c2ccc(C)cc2[n+]1[O-]	Non-toxic
3. COC(=O)c1c(C(F)(F)F)[n+]([O-])c2ccc(F)cc2[n+]1[O-]	Non-toxic
4. CCOC(=O)c1c(C(F)(F)F)[n+]([O-])c2ccc(OC)cc2[n+]1[O-]	Toxic
